Values were extracted from patent US7456293B2.

Molecular target: hPPAR-γ (Homo sapiens)
Sequence (P37231 238-503 limits assumed): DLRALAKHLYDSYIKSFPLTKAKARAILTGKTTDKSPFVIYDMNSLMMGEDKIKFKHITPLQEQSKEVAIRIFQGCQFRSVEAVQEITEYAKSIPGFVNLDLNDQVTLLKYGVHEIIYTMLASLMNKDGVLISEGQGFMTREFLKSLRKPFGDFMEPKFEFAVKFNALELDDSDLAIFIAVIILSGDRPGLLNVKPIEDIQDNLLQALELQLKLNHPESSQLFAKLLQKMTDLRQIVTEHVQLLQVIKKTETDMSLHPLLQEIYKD
Assay: In vitro hPPAR-γ transactivation (GAL4 fusion, SPRAT cells, luciferase)
Settings: 6 hours, read-out: PPAR-γ EC50
pEC50: −log10 of the molar value.

| molecule | pEC50 |
| --- | --- |
| CCOC(Cc1ccc(OCCn2c(C(F)(F)F)nc3ccccc32)cc1)C(=O)O (racemic) | 7.40 |

----------
Test system: db/db mice
Assay: Efficacy test for blood glucose and plasma lipid lowering (db/db mice)
Assay type: in vivo
Conditions: male db/db mice, oral, 3 mg/kg, day 14, vs vehicle
Marks after values point to notes of the source that are not given here.
value.kind: Fatty Acid % max reduction d14

| compound | assay.result |
| --- | --- |
| CCO[C@@H](Cc1ccc(OCCn2c(C(F)(F)F)nc3ccccc32)cc1)C(=O)O | 54** % |
| CCOC(Cc1ccc(OCCn2c(C(F)(F)C(F)(F)F)nc3ccccc32)cc1)C(=O)O (centres unmarked) | 45** % |
| CCOC(Cc1ccc(OCCn2c(C(F)(F)F)nc3cc(C(F)(F)F)ccc32)cc1)C(=O)O (centres unmarked) | 49** % |
| CCOC(Cc1ccc(OCCn2c(C(F)(F)F)nc3ccccc32)cc1)C(=O)O (racemic) | 47** % |
| CCOC(Cc1ccc(OCCn2c(C(F)(F)F)nc3cc(F)ccc32)cc1)C(=O)O (centres unmarked) | 25** % |
